Tested on: CCRF-CEM leukemia
Assay: NCI-60 one-dose screen, 48 h (100 = growth as untreated, 0 = no growth, -100 = all killed)
Conditions: 10 µM unless noted
About 83,000 compounds went through this panel and 20% of them were active in at least one assay; those are over-represented in the sample as a whole.
assay.endpoint: growth (%)

compound	target.system	assay.endpoint	measured.number
CCN1C[C@@H](C)n2c(c(O)c3c(=O)n(Cc4ccc(F)c(Cl)c4)nc(C(=O)NC)c32)C1=O	CCRF-CEM leukemia	growth	40.4
CCC(C)CC(CC)NCCN1CCN(C(CC)CC(C)CC)C1=S (configuration not stated)	CCRF-CEM leukemia	growth	24.3
Cc1cc2c(cc1C)Nc1sc(NC(=O)CN3CCN(C)CC3)nc1C(=O)N2	CCRF-CEM leukemia	growth	98.3
Cc1ccc2c(c1)O/C(=C\c1ccc([N+](=O)[O-])o1)C2=O	CCRF-CEM leukemia	growth	-32.4
O=C1OCC/C1=C\OCCCO/C=C1\CCOC1=O	CCRF-CEM leukemia	growth	107
COc1ccc(/C=N\Nc2ccc([N+](=O)[O-])cn2)cc1OC	CCRF-CEM leukemia	growth	124
Cc1cc(O)c2c(c1)C[C@H]1[C@@H]3CC[C@H]4CC(=O)CC[C@]4(C)[C@H]3CC(=O)[C@]21C	CCRF-CEM leukemia	growth	58.8
CC1SC(c2c(Cl)cccc2Cl)N(NC(=O)c2[nH]c3ccc(F)cc3c2-c2ccccc2)C1=O (configuration not stated)	CCRF-CEM leukemia	growth	56.1
Cc1scc2c1N(C(=O)CN1CCN(C)CC1)c1ccccc1NC2=O	CCRF-CEM leukemia	growth	108
O=C1OC(c2ccc(-c3ccccc3)cc2)=C/C1=C/c1cccs1	CCRF-CEM leukemia	growth	-27.1
CC(C)[O-].CC(C)[O-].CN(CCN(C)Cc1cc(F)cc(F)c1[O-])Cc1cc(F)cc(F)c1[O-].[Ti+4]	CCRF-CEM leukemia	growth	16.4
COC(=O)C[C@@H]1CC=CC(=O)/C1=C(O)/C=C/c1ccccc1	CCRF-CEM leukemia	growth	10.8
COc1cc(C2NC(c3ccc(Cl)cc3)C(C)C(=NC(=O)c3cnccn3)C2C)cc(OC)c1OC (configuration not stated)	CCRF-CEM leukemia	growth	92.4
O=C(CCc1nnc(Cn2cncn2)o1)c1nc2ccccc2[nH]1	CCRF-CEM leukemia	growth	96.4
O=C(CSc1nc2c(n1Nc1ccccc1)-c1ccccc1SC2)Nc1nc(-c2ccc(Cl)cc2)cs1	CCRF-CEM leukemia	growth	44.8
CCCCCCCCCCSc1ncnc2nc[nH]c12	CCRF-CEM leukemia	growth	57.9
OC(Cc1cccnc1)c1ccccc1 (configuration not stated)	CCRF-CEM leukemia	growth	80.2

====

Test system: DU-145 prostate
Assay: NCI-60 one-dose screen, 48 h (100 = growth as untreated, 0 = no growth, -100 = all killed)
Details: 10 µM unless noted
This is part of a sample that, as a whole, favours compounds with a hit. Of some 83,000 tested, about 20% had one in any assay.
Decision: growth compared against 90%; not below it gives Condition met, below it gives Condition not met.

compound	qualitative.label
Cc1cc(C)n2nc(SCC(=O)Nc3sc4c(c3C(N)=O)CCC4)nc2n1	Condition met
ClC1=C(Cl)C(=C2C(Cl)=C(Cl)C(Cl)=C2Cl)C(Cl)=C1Cl	Condition met
O=c1ccn(C2OC(CO)C(O)C2F)c(=O)[nH]1 (stereo unspecified)	Condition met
Cc1[nH]n(C(N)=S)c(=O)c1N=Nc1ccc(F)c(Cl)c1	Condition met
O=C1OCC/C1=C\OCCCO/C=C1\CCOC1=O	Condition met
COc1ccc(-c2nn(-c3ccccc3)cc2/C=C2\SC(=S)N(CCc3ccc(O)cc3)C2=O)cc1	Condition met
CCC(C)CC(C)C(=O)c1c(O)ccn(OC)c1=O (stereo unspecified)	Condition not met
CC[N+](CC)(CCOCCOCC[N+](CC)(CC)Cc1ccc([N+](=O)[O-])cc1)Cc1ccc([N+](=O)[O-])cc1	Condition met
COc1cc(/C=C2\COc3ccc(O)c(O)c3C2=O)cc(OC)c1	Condition not met
O=C(Nc1ccc(OCc2nnc(-c3ccccc3)o2)c(F)c1)Nc1ccc(Cl)c(C(F)(F)F)c1	Condition not met
N#CCCCCCn1c2ccccc2c2c3c(c4c5ccccc5[nH]c4c21)C(=O)N(O)C3=O	Condition not met
CCCCOc1ccc(C(C)(C)c2ccc(OCCCC)cc2)cc1	Condition met
COc1cc2c(c(OC)c1OC)CCc1cnoc1-2	Condition met
CCCCCCCCCCCCNc1ncnc2[nH]ncc12	Condition not met
N#Cc1cccc(/C=C(/C(=O)c2ccccc2)c2ccccc2)c1	Condition not met
O=C1c2ccccc2C(=O)c2c1cccc2-n1nnc2ccccc21	Condition met
O=C(Cn1ccnc1)NC(c1ccccc1)c1ccccc1	Condition met
CC1=CSC2=NCCN12	Condition met
CC1SC(c2c(Cl)cccc2Cl)N(NC(=O)c2[nH]c3ccc(F)cc3c2-c2ccccc2)C1=O (stereo unspecified)	Condition not met
Nc1ncc(-c2cnn(C3CCNCC3)c2)cc1-c1nc2cc(Cl)ccc2o1	Condition not met
Nc1ccc(S(=O)(=O)Nc2ncccn2)cc1	Condition met

====

Test system: IGROV1 ovarian
Assay: NCI-60 one-dose screen, 48 h (100 = growth as untreated, 0 = no growth, -100 = all killed)
Conditions: 10 µM unless noted
This is part of a sample that, as a whole, favours compounds with a hit. Of some 83,000 tested, about 20% had one in any assay.
Could you please mark 1 for values of growth below 80% and 0 for values at or above it?

compound	qualitative.label
CC1(C)OC(=O)C(=Cc2ccccc2Br)C(=O)O1	0
c1ccc(N2CCN(c3nncc4ccccc34)CC2)nc1	0
c1cnc2n[nH]c(Nc3ncnc4c3sc3ncccc34)c2c1	0
O=C1c2ccccc2C(=O)c2c1cccc2-n1nnc2ccccc21	0
Cc1c(C)c(N2C(=O)C=CC2=O)c(C)c(C)c1N1C(=O)C=CC1=O	0
COC1CC2CCC(C)C(O)(O2)C(=O)C(=O)N2CCCCC2C(=O)OC(C(C)CC2CCC(O)C(OC)C2)CC(=O)C(C)C=C(C)C(O)C(OC)C(=O)C(C)CC(C)/C=C/C=C/C=C1C (stereo not drawn)	1
O=C1/C(=C/c2ccc([N+](=O)[O-])o2)Oc2ccc(Br)cc21	1

====

Test system: ACHN renal
Test: NCI-60 one-dose screen, 48 h (100 = growth as untreated, 0 = no growth, -100 = all killed)
Conditions: 10 µM unless noted
About 83,000 compounds went through this panel and 20% of them were active in at least one assay; those are over-represented in the sample as a whole.
Could you please mark Satisfied for values of growth below 40% and Not satisfied for values at or above it?

compound	qualitative.label
CCOC(=O)/C=C(/C)Sc1cc(O)c2ccccc2c1O	Satisfied
O=C(N1CCC(CN=c2cc3n(-c4ccc(Cl)cc4)c4ccccc4nc-3cc2Nc2ccc(Cl)cc2)CC1)N1CC1	Satisfied
Fc1ccc(-c2nnc(/C=C/c3cn(-c4ccccc4)nc3-c3ccccc3)o2)cc1	Not satisfied
CN(CC(=O)Nc1nc2ccccc2[nH]1)S(=O)(=O)c1ccc(Cl)cc1	Not satisfied
CC(c1cc(Cl)ccc1O)c1cc(Cl)ccc1O	Not satisfied
NNC(=O)C1CC2c3ccccc3C1c1ccccc12 (configuration not stated)	Not satisfied
COc1ccc2nccc(/C=C/c3ccnc4ccc(OC)cc34)c2c1	Not satisfied
COc1ccc(-c2cc(C(=O)Nc3nc4cc(C)c(C)cc4s3)nc3cc(-c4ccccc4)nn23)cc1OC	Not satisfied
c1cnc2ccc3ncccc3c2c1	Not satisfied
O=C1OC(c2ccc(-c3ccccc3)cc2)=C/C1=C/c1cccs1	Not satisfied
CO[C@H]1CC(O[C@@H]2/C(C)=C/C[C@@H]3C[C@@H](C[C@]4(CC[C@H](C)[C@@H](C5CCCCC5)O4)O3)OC(=O)[C@@H]3C=C(C)/C(=N/O)[C@H]4OC/C(=C\C=C\[C@@H]2C)[C@]43O)O[C@@H](C)C1O (some centres not stated)	Satisfied
CCCCCCCC/C=C/CCCCCCCC1=NC(C)(C)CN1CC(C)O (configuration not stated)	Satisfied

====

Test system: SR leukemia
Assay: NCI-60 one-dose screen, 48 h (100 = growth as untreated, 0 = no growth, -100 = all killed)
Details: 10 µM unless noted
This is part of a sample that, as a whole, favours compounds with a hit. Of some 83,000 tested, about 20% had one in any assay.
Could you please mark 1.0 for values of growth below 70% and 0.0 for values at or above it?

molecule	target.system	qualitative.label
O=C(Cn1ccnc1)NC(c1ccccc1)c1ccccc1	SR leukemia	0.0
COc1ccc(C2CC(c3cccc(Nc4ccnc5cc(Cl)ccc45)c3)=NN2C=O)cc1 (configuration not stated)	SR leukemia	1.0
NC(=O)NN=C(C1CC1)C1CC1	SR leukemia	0.0
O=[N+]([O-])c1cnc(Sc2ccncn2)c([N+](=O)[O-])c1	SR leukemia	1.0
CSc1ccc2c(c1)N(CCC1CCCCN1C)c1ccccc1S2 (configuration not stated)	SR leukemia	1.0
Cc1c(C(N)=O)sc2ncn(Cc3ccccc3)c(=O)c12	SR leukemia	0.0
[O-]/[N+](=C\C=C\c1ccccc1)c1ccccc1	SR leukemia	0.0
